- Tested on: Caco-2 cell layer
- ASSAY METHOD TEXT: Transport of AGE mixture across Caco-2 cell layer (transwell, apical to basolateral)
- Assay type: in vitro ADME, Human
- APPLIED CONDITIONS: Gly-Sar 10 mmol/L; mixture, each AGE 100 μmol/L; 2 h
Marks after values point to notes of the source that are not given here.
ATTRIBUTE MEASURED: percentage of the amount added at the apical side at t = 0: apical side

Example entries begin here.
N[C@@H](CCCCNCC(=O)O)C(=O)O [CML, N-ε-(carboxymethyl)-lysine]
86.2 ± 3.6 ^a %
Cc1c[n+](CCCC[C@H](N)C(=O)O)cn1CCCC[C@H](N)C(=O)O [MOLD, methylglyoxal–lysine dimer]
93.5 ± 7.2 ^a %
N[C@@H](CCCCNC(=O)CO)C(=O)O [GALA, glycolic acid–lysine–amide]
84.4 ± 3.6 ^a %
CC1NC(NCCC[C@H](N)C(=O)O)=NC1=O (some centres unmarked) [MG-H1, methylglyoxal–hydroimidazolone]
90.1 ± 5.8 ^a %
Cc1nc(NCCC[C@H](N)C(=O)O)nc(C)c1O [argpyrimidine]
93.8 ± 5.0 ^a %
N[C@@H](CCCCn1c(C=O)ccc1CO)C(=O)O [pyrraline]
86.4 ± 2.8 ^a %
N[C@@H](CCCCn1cc[n+](CCCC[C@H](N)C(=O)O)c1)C(=O)O [GOLD, glyoxal-derived lysine dimer]
93.7 ± 7.9 ^ab %

Now take the following compound into account.
## Input Name the recorded percentage of the amount added at the apical side at t = 0: apical side for N[C@@H](CCCC[n+]1cccc2[nH]c(NCCC[C@H](N)C(=O)O)nc21)C(=O)O [pentosidine] .
## Output 92.8 ± 10.4 ^a %
